molecular target: smooth muscle myosin S1 (Gallus gallus); construct: purchased Cytoskeleton #CS-MYS05; experiment: Inhibition of hydrolysis of ATP by smooth muscle myosin S1 fragments; type: biochemical; conditions: 100 μM compound
Sequence (P10587 84-789 limits assumed): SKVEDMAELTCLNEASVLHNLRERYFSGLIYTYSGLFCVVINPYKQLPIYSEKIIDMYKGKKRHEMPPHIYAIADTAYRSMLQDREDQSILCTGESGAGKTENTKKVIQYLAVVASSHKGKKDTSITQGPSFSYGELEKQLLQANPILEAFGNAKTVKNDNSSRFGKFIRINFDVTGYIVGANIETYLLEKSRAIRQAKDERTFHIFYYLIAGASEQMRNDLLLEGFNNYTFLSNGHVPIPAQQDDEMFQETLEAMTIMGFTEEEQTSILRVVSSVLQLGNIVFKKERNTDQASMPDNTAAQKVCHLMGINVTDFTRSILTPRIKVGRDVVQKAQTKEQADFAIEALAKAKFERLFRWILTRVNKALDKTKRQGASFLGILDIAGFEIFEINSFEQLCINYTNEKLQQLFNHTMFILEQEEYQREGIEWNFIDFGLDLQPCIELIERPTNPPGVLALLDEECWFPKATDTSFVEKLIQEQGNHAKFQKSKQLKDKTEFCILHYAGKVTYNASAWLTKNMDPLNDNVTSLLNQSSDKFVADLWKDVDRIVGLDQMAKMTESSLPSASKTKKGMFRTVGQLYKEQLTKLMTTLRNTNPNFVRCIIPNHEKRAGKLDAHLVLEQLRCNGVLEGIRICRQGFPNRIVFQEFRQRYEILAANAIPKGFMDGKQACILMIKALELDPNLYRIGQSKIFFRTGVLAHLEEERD
Sequence (P02607 whole entry partner, the tested form may be a part): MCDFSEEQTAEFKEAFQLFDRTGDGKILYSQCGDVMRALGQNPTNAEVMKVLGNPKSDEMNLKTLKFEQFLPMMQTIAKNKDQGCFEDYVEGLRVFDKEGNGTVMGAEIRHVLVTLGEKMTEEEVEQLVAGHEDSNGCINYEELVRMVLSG
# inhibition at 100 µM listing for each entry below

- Compound: "O=c1ccc(-c2cnc(OCC(F)(F)F)nc2)nn1Cc1ccc2c(c1)C1CC1C2 (single isomer, unassigned)"
  inhibition at 100 µM, %: 3
- Compound: "O=C1Cc2cc(Cn3nc(-c4cnc(OCC(F)(F)F)nc4)ccc3=O)ccc21"
  inhibition at 100 µM, %: 23.6
- Compound: "O=c1ccc(-c2cnc(C3CCC3)nc2)nn1Cc1ccc2c(c1)CC2"
  inhibition at 100 µM, %: -3.5
- Compound: "O=C1CCc2cc(F)c(Cn3nc(-c4cnc(OCC(F)(F)F)nc4)ccc3=O)cc21"
  inhibition at 100 µM, %: -4
- Compound: "O=c1ccc(-c2cnc(Oc3cncc(F)c3)nc2)nn1Cc1ccc2c(c1)CCC2"
  inhibition at 100 µM, %: 3
- Compound: "O=c1ccc(-c2cnc(Oc3nccs3)nc2)nn1Cc1ccc2c(c1)CCC2"
  inhibition at 100 µM, %: 2
- Compound: "O=c1ccc(-c2cnc(OCC(F)(F)F)nc2)nn1Cc1ccc2c(c1)CC1CC21 (stereo not shown) [Compound 156]"
  inhibition at 100 µM, %: -11
- Compound: "O=C1CCc2c(F)cc(Cn3nc(-c4cnc(OCC(F)F)nc4)ccc3=O)cc21"
  inhibition at 100 µM, %: 17
- Compound: "N#CC1(COc2ncc(-c3ccc(=O)n(Cc4ccc5c(c4)C(=O)CC5)n3)cn2)CC1"
  inhibition at 100 µM, %: 13
- Compound: "O=c1ccc(-c2cnc(OCC3(F)CCC3)nc2)nn1Cc1ccc2c(c1)CCC2"
  inhibition at 100 µM, %: -13
- Compound: "O=C1CCc2ccc(Cn3nc(-c4cnc(OCC(F)F)nc4)ccc3=O)cc21"
  inhibition at 100 µM, %: -9
- Compound: "O=C1CCc2c(F)cc(Cn3nc(-c4cnc(OCC(F)(F)F)nc4)ccc3=O)cc21"
  inhibition at 100 µM, %: -12
- Compound: "CC(F)(F)COc1ncc(-c2ccc(=O)n(Cc3ccc4c(c3)C(=O)CC4)n2)cn1"
  inhibition at 100 µM, %: 6
- Compound: "O=c1ccc(-c2cnc(OCC(F)(F)F)nc2)nn1Cc1cc(F)c2c(c1)CCC2"
  inhibition at 100 µM, %: -3
- Compound: "O=c1ccc(-c2cnc(OCC3(F)CC3)nc2)nn1Cc1ccc2c(c1)CCC2"
  inhibition at 100 µM, %: -0.9
- Compound: "O=C1CCc2c(F)cc(Cn3nc(-c4cnc(O[C@H]5CCOC5)nc4)ccc3=O)cc21"
  inhibition at 100 µM, %: 12
- Compound: "CN1CC(Oc2ncc(-c3ccc(=O)n(Cc4ccc5c(c4)CC5)n3)cn2)C1"
  inhibition at 100 µM, %: 20.7
- Compound: "O=C1CCc2c(F)cc(Cn3nc(-c4cnc(O[C@@H]5CCOC5)nc4)ccc3=O)cc21"
  inhibition at 100 µM, %: 14
- Compound: "O=C1CCc2c(Cl)cc(Cn3nc(-c4cnc(OCC(F)(F)F)nc4)ccc3=O)cc21"
  inhibition at 100 µM, %: 6
- Compound: "O=C1CCc2ccc(Cn3nc(-c4cnc(Oc5csc(C(F)(F)F)c5)nc4)ccc3=O)cc21"
  inhibition at 100 µM, %: 5
- Compound: "O=c1ccc(-c2cnc(OCC(F)F)nc2)nn1Cc1ccc2c(c1)CCC2"
  inhibition at 100 µM, %: 3
- Compound: "O=C1CCc2ccc(Cn3nc(-c4cnc(O[C@@H]5CCOC5)nc4)ccc3=O)cc21"
  inhibition at 100 µM, %: 2
- Compound: "O=c1cc2c(nn1Cc1ccc3c(c1)CC3)-c1cnc(OCC(F)(F)F)nc1CC2"
  inhibition at 100 µM, %: -2
- Compound: "CC(F)(F)COc1ncc(-c2ccc(=O)n(Cc3ccc4c(c3)CCC4)n2)cn1"
  inhibition at 100 µM, %: -6
- Compound: "O=c1ccc(-c2cnc(OCC(F)(F)F)nc2)nn1Cc1ccc2c(c1)CCCC2(F)F"
  inhibition at 100 µM, %: 17.6
